targetUnderTest: apVTR1 (Aplysia californica, UniProt A0ABM1ABB6)
Sequence (A0ABM1ABB6 1-470): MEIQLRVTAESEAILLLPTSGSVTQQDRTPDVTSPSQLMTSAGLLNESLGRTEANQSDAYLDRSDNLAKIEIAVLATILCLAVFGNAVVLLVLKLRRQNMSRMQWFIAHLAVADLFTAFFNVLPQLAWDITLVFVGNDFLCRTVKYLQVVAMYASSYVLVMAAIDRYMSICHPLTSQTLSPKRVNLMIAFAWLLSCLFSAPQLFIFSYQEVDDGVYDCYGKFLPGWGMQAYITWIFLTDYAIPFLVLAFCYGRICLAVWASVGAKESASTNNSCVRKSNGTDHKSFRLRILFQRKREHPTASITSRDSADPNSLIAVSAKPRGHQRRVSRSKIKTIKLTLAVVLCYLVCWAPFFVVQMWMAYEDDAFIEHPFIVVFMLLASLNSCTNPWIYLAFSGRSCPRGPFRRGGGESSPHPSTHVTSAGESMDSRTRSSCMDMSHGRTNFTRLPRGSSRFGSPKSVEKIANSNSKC
runDescription: cell-based
Assay type: cell-based
conditions: apVTR1 EC50
Bridge positions count the residues as written; N and C are the ends. Peptide text beside a SMILES is read from it. * marks the point of attachment. Acm = CC(=O)NC*
metric: EC50 (µM)
Only the number, expressed in µM, is required.

compound	readoutValue
CC[C@H](C)[C@H](NC(=O)[C@H](Cc1ccccc1)NC(=O)[C@@H](N)CS)C(=O)N[C@@H](CCCNC(=N)N)C(=O)N[C@@H](CC(N)=O)C(=O)N[C@@H](CSCNC(C)=O)C(=O)N1CCC[C@H]1C(=O)N[C@@H](CCCCN)C(=O)NCC(N)=O [[Cys(Acm)^6]apVT] (H-CFIRNC(Acm)PKG-NH2; N-terminus assumed)	1.5
CC[C@H](C)[C@@H]1NC(=O)[C@H](Cc2ccccc2)NC(=O)[C@@H](N)CSSC[C@@H](C(=O)N2CCC[C@H]2C(=O)N[C@@H](CCCCN)C(=O)NCC(N)=O)NC(=O)[C@H](C)NC(=O)[C@H](CCCNC(=N)N)NC1=O [[Ala^5]apVT] (H-CFIRACPKG-NH2; disulfide 1-6)	6

apVTR1 (Aplysia californica, UniProt A0ABM1ABB6) / EC50 / CC(C)[C@@H]1NC(=O)[C@H](Cc2ccccc2)NC(=O)[C@@H](N)CSSC[C@@H](C(=O)N2CCC[C@H]2C(=O)N[C@H](C(=O)NCC(N)=O)[C@@H](C)O)NC(=O)[C@H](CC(N)=O)NC(=O)[C@H](CCCNC(=N)N)NC1=O [Annetocin, reference compound] (H-CFVRNCPTG-NH2; disulfide 1-6) : value?
5.6

One more compound: CC[C@H](C)[C@@H]1NC(=O)[C@H](Cc2ccccc2)NC(=O)[C@@H](N)CSSC[C@@H](C(=O)N[C@@H](C)C(=O)N[C@@H](CCCCN)C(=O)NCC(N)=O)NC(=O)[C@H](CC(N)=O)NC(=O)[C@H](CCCNC(=N)N)NC1=O [[Ala^7]apVT] (H-CFIRNCAKG-NH2; disulfide 1-6)
1.1

Please do the same for CC[C@H](C)[C@@H]1NC(=O)[C@H](Cc2ccc(O)cc2)NC(=O)[C@@H](N)CSSC[C@@H](C(=O)N2CCC[C@H]2C(=O)N[C@@H](CC(C)C)C(=O)NCC(N)=O)NC(=O)[C@H](CC(N)=O)NC(=O)[C@H](CCC(N)=O)NC1=O [Oxytocin, reference compound] as well.
16

Note, next up: C[C@@H]1NC(=O)[C@H](Cc2ccccc2)NC(=O)[C@@H](N)CSSC[C@@H](C(=O)N2CCC[C@H]2C(=O)N[C@@H](CCCCN)C(=O)NCC(N)=O)NC(=O)[C@H](CC(N)=O)NC(=O)[C@H](CCCNC(=N)N)NC1=O [[Ala^3]apVT] (H-CFARNCPKG-NH2; disulfide 1-6)
30

What would you report for CC[C@H](C)[C@@H]1NC(=O)[C@H](Cc2ccccc2)NC(=O)[C@@H](N)CSSC[C@@H](C(=O)N2CCC[C@H]2C(=O)N[C@@H](CCCCN)C(=O)NCC(N)=O)NC(=O)[C@H](CC(N)=O)NC(=O)[C@H](CCCNC(=N)N)NC1=O [apVT, Aplysia vasotocin] (H-CFIRNCPKG-NH2; disulfide 1-6; N-terminus assumed) ?
0.07
